Every entry's value here was drawn from ChEMBL document CHEMBL3596129.

Some compounds, each annotated with its measured MIC.
- ASSAY TARGET: Quinolone resistance protein NorA (Staphylococcus aureus)
- METHOD NOTES: Inhibition of NorA overexpressed in Staphylococcus aureus SA1199B assessed as ciprofloxacin MIC at 25 uM after 24 hrs by broth checkerboard method (reference value: 8 ug/ml)
Expressed in µg/mL, but write only the number.

INSERT INTO measurements (compound, assay_target, parameter, recorded_result) VALUES
  ('C/C=C(\C)C(=O)OC1c2c(ccc3ccc(=O)oc23)OC(C)(C)C1OC(=O)/C(C)=C/C (centres undefined)', 'Quinolone resistance protein NorA (Staphylococcus aureus)', 'MIC', 4),
  ('COc1cc(/C=C/C(=O)CC(=O)/C=C/c2ccc(O)c(OC)c2)ccc1O', 'Quinolone resistance protein NorA (Staphylococcus aureus)', 'MIC', 1),
  ('CC(=O)Oc1cc(OC(C)=O)c2ccc(=O)oc2c1CC=C(C)C', 'Quinolone resistance protein NorA (Staphylococcus aureus)', 'MIC', 4);

Let us examine a further case.
Recorded MIC for CC(C)=CCc1c(O)cc(O)c2ccc(=O)oc12 with Quinolone resistance protein NorA (Staphylococcus aureus), please?
4
